Data origin, for the record: patent US20230203177A1

Overview of recorded IC50, inhibition of tonsillar human B cell proliferation stimulated by IZ-hCD40L trimer for various binders
Biological target: human CD40 on primary human tonsillar B cells (human, UniProt P25942 21-277)
Sequence (P25942 21-277 limits assumed): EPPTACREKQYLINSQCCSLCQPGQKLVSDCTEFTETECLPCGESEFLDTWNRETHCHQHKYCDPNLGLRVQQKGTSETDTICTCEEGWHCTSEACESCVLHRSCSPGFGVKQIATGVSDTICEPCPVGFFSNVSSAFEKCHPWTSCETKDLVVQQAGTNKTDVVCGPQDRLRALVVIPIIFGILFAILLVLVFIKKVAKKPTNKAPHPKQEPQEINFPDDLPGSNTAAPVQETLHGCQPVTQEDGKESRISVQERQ
Assay: cell-based or functional assay
Report as a plain number; the unit ng/mL is understood.

M54 (HC-K12V,K19S,K23A / LC-K45Q,R54Q,R61Q) (antibody, human IgG1, kappa, V domains shown, IgG1-P238K; also called HC6/LC4) VH: QVQLVQSGAEVVKPGSSVSVSCAASGYAFTSYWMHWVRQAPGQGLEWMGQINPTTGRSQYNEKFKTRVTITADKSTSTAYMELSSLRSEDTAVYYCARWGLQPFAYWGQGTLVTVSS VL: DIQMTQSPSFLSASVGDRVTITCKASQDVSTAVAWYQQKPGKAPQLLIYSASYQYTGVPSQFSGSGSGTDFTLTISSLQPEDFATYYCQQHYSTPWTFGGGTKVEIKR	3.3
M80 (HC-K63Q / LC-R61Q) (antibody, human IgG1, kappa, V domains shown, IgG1-P238K; also called HC16/LC5) VH: QVQLVQSGAEVKKPGSSVKVSCKASGYAFTSYWMHWVRQAPGQGLEWMGQINPTTGRSQYNEQFKTRVTITADKSTSTAYMELSSLRSEDTAVYYCARWGLQPFAYWGQGTLVTVSS VL: DIQMTQSPSFLSASVGDRVTITCKASQDVSTAVAWYQQKPGKAPKLLIYSASYRYTGVPSQFSGSGSGTDFTLTISSLQPEDFATYYCQQHYSTPWTFGGGTKVEIKR	16.4

Please look at the following binder next.
Data request: Please report the recorded IC50, inhibition of tonsillar human B cell proliferation stimulated by IZ-hCD40L trimer for M62 (HC-K74T / LC-K45Q,R54Q,R61Q) (antibody, human IgG1, kappa, V domains shown, IgG1-P238K; also called HC14/LC4) VH: QVQLVQSGAEVKKPGSSVKVSCKASGYAFTSYWMHWVRQAPGQGLEWMGQINPTTGRSQYNEKFKTRVTITADTSTSTAYMELSSLRSEDTAVYYCARWGLQPFAYWGQGTLVTVSS VL: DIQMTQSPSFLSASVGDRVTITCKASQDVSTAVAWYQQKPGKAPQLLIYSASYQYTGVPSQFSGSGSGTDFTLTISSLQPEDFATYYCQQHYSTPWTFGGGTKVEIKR .
Data returned: 6.2
